# test system: Substance-P receptor (Homo sapiens, UniProt P25103)
# Sequence (P25103 whole entry): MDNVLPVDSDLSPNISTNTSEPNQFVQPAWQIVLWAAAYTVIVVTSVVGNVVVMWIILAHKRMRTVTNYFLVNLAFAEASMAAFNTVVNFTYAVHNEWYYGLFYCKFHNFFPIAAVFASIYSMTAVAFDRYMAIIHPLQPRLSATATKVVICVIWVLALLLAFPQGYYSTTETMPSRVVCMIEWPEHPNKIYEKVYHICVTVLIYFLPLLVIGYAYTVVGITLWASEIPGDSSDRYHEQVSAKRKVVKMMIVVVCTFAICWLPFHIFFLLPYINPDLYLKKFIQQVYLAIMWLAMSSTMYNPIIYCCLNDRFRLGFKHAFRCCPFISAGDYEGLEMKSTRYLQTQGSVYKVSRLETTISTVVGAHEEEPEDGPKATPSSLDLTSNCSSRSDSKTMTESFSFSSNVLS
# protocol summary: Displacement of [125I]BH-SP to human recombinant NK1 receptor in CHO cells
// classify: if (IC50 < 100 nM) fulfilled else not fulfilled

Item O=C(NCc1cc(C(F)(F)F)cc(C(F)(F)F)c1)c1c(-c2ccccc2)c2ccccc2n2cnnc12 : IC50 beneath 100 nM, strictly?
not fulfilled

Item Cc1ccc(-c2c(C(=O)N(C)Cc3cc(C(F)(F)F)cc(C(F)(F)F)c3)c3nnnn3c3ccccc23)cc1 : IC50 beneath 100 nM, strictly?
fulfilled

Item CN(Cc1cc(C(F)(F)F)cc(C(F)(F)F)c1)C(=O)c1c(-c2ccccc2)c2ccccc2n2ccnc12 : IC50 beneath 100 nM, strictly?
fulfilled

Item O=C(NCc1cc(C(F)(F)F)cc(C(F)(F)F)c1)c1c(-c2ccccc2)c2ccccc2n2ccnc12 : IC50 beneath 100 nM, strictly?
not fulfilled

Item O=C(NCc1cc(C(F)(F)F)cc(C(F)(F)F)c1)c1c(-c2ccccc2)c2ccccc2n2cncc12 : IC50 beneath 100 nM, strictly?
not fulfilled

Item CN(Cc1cc(C(F)(F)F)cc(C(F)(F)F)c1)C(=O)c1c(-c2ccccc2)c2ccccc2n2cncc12 : IC50 beneath 100 nM, strictly?
fulfilled

Item COc1cc(CNC(=O)c2c(-c3ccccc3)c3ccccc3n3nnnc23)cc(OC)c1 : IC50 beneath 100 nM, strictly?
not fulfilled

Item O=C(NCc1cc(C(F)(F)F)cc(C(F)(F)F)c1)c1c(-c2ccccc2)c2ccccc2n2nnnc12 : IC50 beneath 100 nM, strictly?
not fulfilled

###

# test system: Substance-P receptor (Homo sapiens)
# protocol summary: Displacement of [125I]BH-SP to human recombinant NK1 receptor in CHO cells
attribute measured: pIC50
Scale: pIC50 equals -log10([C]), with [C] in mol/L.

Consider the compound shown here: O=C(NCc1cc(C(F)(F)F)cc(C(F)(F)F)c1)c1c(-c2ccc(F)cc2)c2ccccc2n2nnnc12 What is its recorded pIC50?
6.63

Consider the compound shown here: CN(Cc1cc(C(F)(F)F)cc(C(F)(F)F)c1)C(=O)c1c(-c2ccc(F)cc2)c2ccccc2n2nnnc12 What is its recorded pIC50?
7.68

Consider the compound shown here: CN(Cc1cc(C(F)(F)F)cc(C(F)(F)F)c1)C(=O)c1c(-c2ccccc2)c2ccccc2n2nnnc12 What is its recorded pIC50?
7.59

Consider the compound shown here: O=C(NCc1cc(C(F)(F)F)cc(C(F)(F)F)c1)c1c(-c2ccccc2)c2ccccc2n2cccc12 What is its recorded pIC50?
6.41

Consider the compound shown here: COc1ccccc1CNC(=O)c1c(-c2ccccc2)c2ccccc2n2nnnc12 What is its recorded pIC50?
5.56

Consider the compound shown here: CN(Cc1cc(C(F)(F)F)cc(C(F)(F)F)c1)C(=O)c1c(-c2ccccc2)c2ccccc2n2cccc12 What is its recorded pIC50?
7.44

Consider the compound shown here: CN(Cc1cc(C(F)(F)F)cc(C(F)(F)F)c1)C(=O)c1c(-c2ccccc2)c2ccccc2n2cnnc12 What is its recorded pIC50?
8.05

Consider the compound shown here: Cc1ccc(-c2c(C(=O)NCc3cc(C(F)(F)F)cc(C(F)(F)F)c3)c3nnnn3c3ccccc23)cc1 What is its recorded pIC50?
6.40

FYI, the data here is from ChEMBL document CHEMBL1158159.
